test: protein stability index of a GFP-peptide fusion (GPS, HEK-293T) (PSI 1-6); higher = more stable; details: treatment: MLN4924 1 uM, 8 h; c terminus: a fixed tail appended;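 also: 24-mer peptide tiles fused after GFP, lentivirally expressed, FACS-sorted into six equal bins by GFP/DsRed ratio, decoded by Illumina sequencing, PSI is the read-weighted mean bin number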
ENDPOINT: protein stability index
One number for each entry.

INSERT INTO results (primary_sequence, measured) VALUES
  ('FALQSDLDQPAFQQLVSFSESGSL [ISL2]', 3.03),
  ('HYSLLTSQPLDREATSHYIIELLA [PCDHGC5]', 2.63),
  ('VRNNRSIIKQLKDVFERDWYSPYA [PLD5]', 2.41);

Let us examine a further case.
Given the entry CKRNFVAVYDGSSSVEDLKAKFCS [NETO1] , report its measured protein stability index.
2.9

----------
Can you tell me protein stability index for the items I'm about to list?
test: protein stability index of a GFP-peptide fusion (GPS, HEK-293T) (PSI 1-6); higher = more stable; details: treatment: MLN4924 1 uM, 8 h; c terminus: a fixed tail appended
Answers are plain numbers.

Solved entries (count: 10):
INSERT INTO results (primary_sequence, endpoint, measured) VALUES
  ('QSFTLRGDHRSPASAQKFSSRSTV [NET1]', 'protein stability index', 3.9),
  ('SRSNNMGIVGGFTQMIREGGARSL [SLC25A25]', 'protein stability index', 3.47),
  ('LFPQWHLPIKIAAIIASLTFLYTL [STEAP1]', 'protein stability index', 3.13),
  ('FLDIDTSAVEKEPARAPPEPPHNL [SERTAD3]', 'protein stability index', 4.98),
  ('KNKKSSTGEASENGLEDIDRILER [TCF25]', 'protein stability index', 5.49),
  ('YDMSDTNSDPEVVNVDNLLAAAVV [C18orf25]', 'protein stability index', 4.02),
  ('APSFSSYLYFLFCPTLIYRETYPR [SOAT2]', 'protein stability index', 2.7),
  ('MEAQAQGLLETEPLQGTDEDAVAS [TPD52L1]', 'protein stability index', 5.56),
  ('GSSDASGSYSSTMNGHQNGLDSPP [ESRRG]', 'protein stability index', 4.99),
  ('EGSLCAAHLPKAQLSGYAVEATRN [FBF1]', 'protein stability index', 3.99);

List the reported protein stability index of each sequence below.
1. RYRQAGSSGPGNSQNSFLVQEVME [RPAIN]
2. SARMSAGLPGPEAARSGDAAANKL [PLEKHN1]
3. GRKDITSILRAPAYPLELQGQPDP [MOSPD3]
4. APSIEQRLQEVRESIRRAQVSQVK [FCHSD1]

1: 3.82; 2: 4.92; 3: 4.28; 4: 4.35

----------
assay: protein stability index of a GFP-peptide fusion (GPS, HEK-293T) (PSI 1-6); higher = more stable; conditions: treatment: MLN4924 1 uM, 8 h; c terminus: a fixed tail appended
Can you tell me protein stability index for the items I'm about to list?
Numbers only.

List the reported protein stability index of each sequence below.
1. DETHFGKMGSYYINRTFFFDVHPP [POMT2]
2. AIDQYRVCQEVLERSRDVVDDVSV [RHOBTB2]

[2.23, 4.78]

List the reported protein stability index of each sequence below.
1. YFLELTQSFIIPLERYVASLMPLQ [DENND6A]
2. TIRSGISPNLNVVDGRLTYPTCGI [SASS6]
3. LEESDIDRDGTINLSEFQHVISRS [CIB1]

1. 3.15
2. 3.02
3. 4.75

List the reported protein stability index of each sequence below.
1. NYASIIRRDCMWSGFSARERLERA [MYCL]
2. METGRWKKINTEGDVPPSMSGSCA [KLHDC2]
3. VVKFVNFLLVNGFQTAIDIFEDRI [TRAF3IP2]
4. YNVIIGWSIFYFFKSFQYPLPWSE [SLC6A17]

[2.77, 4.21, 2.83, 3.32]

List the reported protein stability index of each sequence below.
1. EGCTGALHILARDVHNRIVIRGLN [CTNNB1]
2. RMKKNGMEMTRPTPPHLTSAMAEN [NOL4L]
3. MGPAPRARPWTRDSASLPRKPSVP [RASAL3]
4. RPNDDSLAFLDKIKSVKESLQESV [IQUB]
5. DILPRWAIIGWLLTTCTSNVAASN [INTS3]

1: 2.71; 2: 4.37; 3: 4.12; 4: 3.34; 5: 3.08

List the reported protein stability index of each sequence below.
1. DGTSQSTGGSADLFGGFADFGSAA [CLINT1]
2. NSHVYNGRTHQWKPLYPDDYVHIS [ADAMTSL2]
3. HHSLQAHFRPRFHPLPTVIIVNLL [TMEM192]

[4.46, 2.8, 2.35]

List the reported protein stability index of each sequence below.
1. AEKCLDFLVDMFNDEIEEVRLQSI [INTS4]
2. PDREKGFHLDVEDYLSGVLILASE [TSN]
3. EAFQLYQEAAQLDMLLEKLPQVAE [FLOT1]
4. QLWGQKKKNSNMTYEKLSRAMRYY [ELF3]
5. LKPLCGCHSFAAAADGPTVCCNPY [SMAD6]
6. VTYMNMTAYNKGRLQSSFWIVDKQ [PLD5]

[2.94, 2.81, 2.69, 2.32, 2.92, 2.33]

----------
Can you tell me protein stability index for the items I'm about to list?
assay: protein stability index of a GFP-peptide fusion (GPS, HEK-293T) (PSI 1-6); higher = more stable; conditions: treatment: MLN4924 1 uM, 8 h; c terminus: a fixed tail appended
Numbers only.

INSERT INTO assay_data (primary_sequence, endpoint, measured) VALUES
  ('GSMVEIAKQLQAVKRKIRDESLCP [TRIM39]', 'protein stability index', 3.15),
  ('QLKKCETRKLSPGKKRCKDIKRLL [SMG5]', 'protein stability index', 3.22),
  ('LKYENDYPSVILRDPLQTDTLQND [ETS1]', 'protein stability index', 4.53),
  ('SGDAAAQPAFTGIKGKEGSALTEG [EPB41L3]', 'protein stability index', 5.32),
  ('VRVNVLLSRYLIEPCGPGKSKLTY [DLC1]', 'protein stability index', 2.68);

List the reported protein stability index of each sequence below.
1. CHLCVNYIEMQTDPANCDYVIVSG [YJU2B]
2. MKALILVGGYGTRLRPLTLSTPKP [GMPPB]
3. DAVTIPCGHTFCRLCLPALSQMGA [TRIM15]
4. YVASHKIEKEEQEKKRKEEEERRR [ACBD3]
5. KVLFALCALNALTTTVCLVAAALR [FAM189A2]
6. AIELFHSYRETRRKEGIVKLKPHE [PTPN9]

[2.57, 2.23, 2.17, 4.37, 3.3, 3.25]

----------
test: protein stability index of a GFP-peptide fusion (GPS, HEK-293T) (PSI 1-6); higher = more stable; settings: treatment: MLN4924 1 uM, 8 h; c terminus: a fixed tail appended
ENDPOINT: protein stability index
Give bare numbers.

Solved entries (count: 5):
INSERT INTO assay_data (primary_sequence, measured) VALUES
  ('KRFEKQLTQIDGTLSTIEFQREAL [CHMP4C]', 4),
  ('KRNFISSKSKQPAGHRRPAGGIRE [C22orf31]', 3.99),
  ('EPPVTMIFMGYQNVEDEAETKKVL [PALM]', 4.09),
  ('RRRVPVRNLGKVVHYAKVQLRFQH [PLEKHN1]', 2.29),
  ('KHVEYEVSSQRFKSSVYRRYNDFV [SNX8]', 2.8);

List the reported protein stability index of each sequence below.
1. SRNFIERNHMENGGDHRYVNNYTN [TRIM29]
2. KEPAEFNGDGAFLHDNHEQMPTEI [ZNF649]
3. VQGLMKEYLLSFPAGKTPVPAGEE [VPS39]
4. EVYYDGQWGTVCDDDFSIHAAHVV [LOXL2]
5. LIKLGLERFHGVGILGFNSAEWFI [ACSBG2]

1. 3.57
2. 5.16
3. 3.88
4. 2.6
5. 2.13

----------
assay: protein stability index of a GFP-peptide fusion (GPS, HEK-293T) (PSI 1-6); higher = more stable; conditions: treatment: DMSO; c terminus: a fixed tail appended
ENDPOINT: protein stability index
Answers are plain numbers.

INSERT INTO measurements (primary_sequence, endpoint, measured) VALUES
  ('QLKKCETRKLSPGKKRCKDIKRLL [SMG5]', 'protein stability index', 3.32);

List the reported protein stability index of each sequence below.
1. GRQERGLPPSMERGYPPPRDSYSS [RBMX]
2. KKINTEGDVPPSMSGSCAVCVDRV [KLHDC2]
3. PRLHGAKAILDAEPGPRPALQPSP [TBC1D10A]
4. RMGDADYLAAWHRLVLPIAYEFNP [HDAC6]
5. CTKTCGVGVRMRDVKCYQGTDIVR [ADAMTSL2]

1: 4.77; 2: 4.18; 3: 4.81; 4: 2.27; 5: 3.27

List the reported protein stability index of each sequence below.
1. DEKINIYCLTCEVPTCSMCKVFGI [TRIM63]
2. NMMKVLRGHQNWVYSCAFSPDSSM [WSB1]
3. ASSPKGTIENILDNDPRDLIGDFS [CDC25A]

1. 2.43
2. 2.37
3. 4.91

List the reported protein stability index of each sequence below.
1. LLFSDKNVNSNLITWNRVVLLHGP [TRIP13]
2. DRFLAGVPTPKSHLQLLGAVCMFL [CCND2]

1. 2.91
2. 2.63
